All values here come from PubChem BioAssay (NCATS).

# test.description: qHTS for Hypoxia signaling pathway (HIF-1) agonists against the NCATS CANVASS Library (AID 1347375); also: 0% is about no effect
# assay.context: HRE-bla ME-180 cells, HIF-1 beta-lactamase reporter, 17 h; series mostly up to 38.3 µM
# Excerpt: Natural products and their derivatives continue to be wellsprings of nascent therapeutic potential. […] To address this issue, the Canvass library of natural products was assembled (https://tripod.nih.gov/canvass), in collaboration with academic and industry researchers, for quantitative high-throughput screening (qHTS) across a diverse set of cell-based and biochemical assays. […]
Results filed as inconclusive are left out. Active and inactive are the calls of the source. Calls follow the shape of the dose curve; as a rule, active = well fitted activation curve with a large enough effect; inconclusive = small, poorly fitted or top-dose-only effect; inactive = flat fitted curve, though single readings scatter.

| compound | activation |
| --- | --- |
| C[n+]1cc2cc(C(N)=O)[nH]c3c(=N)c(Cl)c(N)c1c23 | inactive |
| CC[C@H]1[C@@H](C)[C@@H](c2cc(OC)c(OC)cc2OC)[C@H](C)[C@@H](c2cc(OC)c(OC)cc2OC)[C@@]12C=C(OC)C(=O)C=C2OC | inactive |
| C/C=C/C(=O)C1(O)CC2CC(C(=O)O)CC(C)C2C1C1=C2C(=O)NC(=O)C2=C(CCCCC)C(C)O1 (centres undefined) | inactive |
| O=Cc1ccc2n1C[C@]1(C[C@H](O)[C@@H](CO)O1)OC2 | inactive |

----------
# test.description: Panc-1005 Cancer Cell Toxicity qHTS against the NCATS CANVASS Library (AID 1347349); also: % is scaled to controls: 0 for no effect and ±100 for the full control effect; nearly all actives have a fitted effect of over 60% in size
# assay.context: Panc-1005 viability, CellTiter-Glo luminescence, 72 h; series mostly up to 38.3 µM
# Description: Natural products and their derivatives continue to be wellsprings of nascent therapeutic potential. […] To address this issue, the Canvass library of natural products was assembled (https://tripod.nih.gov/canvass), in collaboration with academic and industry researchers, for quantitative high-throughput screening (qHTS) across a diverse set of cell-based and biochemical assays. […]
Inconclusive results are not listed. Activity calls are given as the source filed them. Calls come from the whole dose curve; as a rule, active = well fitted cell-killing curve with a large enough effect; inconclusive = small, poorly fitted or top-dose-only effect; inactive = flat fitted curve, though single readings scatter.
reported.property: outcome

Illustrative cases are given below, each with its answer.
| compound | reported.property | obs.value |
| --- | --- | --- |
| O=C1CC(c2ccc(O)cc2)Oc2cc(O)ccc21 (configuration not stated) | outcome | inactive |
| COC(=O)[C@@]12Oc3cccc(O)c3C(O)=C1C(=O)C[C@H](C)[C@H]2O | outcome | inactive |
| COc1c(O)cc(O)c2c(=O)cc(-c3ccccc3)oc12 | outcome | inactive |
| CC(C)C[C@@H]1c2c(O)c(C=O)c(O)c(C=O)c2O[C@]2(C)C=C[C@@H](C(C)C)C[C@H]12 | outcome | inactive |
| [C-]#[N+][C@@]12C(=O)[C@@H]3[C@@H](O[C@@]4(C(=O)N(C)c5cccc1c54)C3(C)C)C(=O)[C@@]2(C)C=C | outcome | inactive |

In: Consider the compound O=C1OC(CCO)c2cccc(O)c21 (configuration not stated) and give its measured outcome.
Out: inactive

In: Recorded outcome of `COc1ccc(-c2oc3cc(OC)cc(OC)c3c(=O)c2O)cc1` , please.
Out: inactive

----------
# test.description: Stat Signaling Pathway (AID 446);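 also: ME-180 cervical cancer cells given 40 pM IL-6 alongside compound; SIE-controlled beta-lactamase reporter measured as 460/530 nm FRET emission ratio; % is scaled to controls: 0 for no effect and ±100 for the full control effect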
# assay.context: ME-180 (cervical carcinoma) SIE beta-lactamase reporter, IL-6 stimulated, 5 h; at 7.69 µM (top of the series) unless noted
Inconclusive results are not listed.
Each item that follows carries a reported activity, negative = inhibition.
Dear colleague, please return just the value in %, with no unit written.

| smiles.text | activity, negative = inhibition (%) |
| --- | --- |
| COc1ccccc1-c1cc(NCc2cccc(C)c2)ncn1 | -2.82 |
| CC(C)NC(=O)N1CC[C@@]2(CCCN(C(=O)c3cccn3C)C2)C1 | -1.46 |
| COc1ccc(NC(=O)N2CC3(CCN(S(C)(=O)=O)CC3)C2)cc1 | 5.18 |
| Cn1cccc1C(=O)N1CCC2(CC1)CN(C(=O)Nc1ccccc1)C2 | -5.03 |
| Cn1cccc1C(=O)N1CCC[C@@]2(CCN(Cc3ccc(C#N)cc3)C2)C1 | -3.28 |

In: // activity, negative = inhibition lookup, key: `CCNc1ncc2nc(C)c(=O)n(Cc3ccc(F)cc3)c2n1`
Out: -2.29

In: Recorded activity, negative = inhibition for `CN(Cc1ccco1)c1ncncc1-c1ccccc1Cl` , please?
Out: 3.72

In: Form field: reported activity, negative = inhibition of `O=c1c(CCc2ccccc2)nc2cnc(N3CCOCC3)nc2n1Cc1cccs1`
Out: 2.46

----------
# test.description: HPAF-II Cancer Cell Toxicity qHTS against the NCATS CANVASS Library (AID 1347346); also: nearly all actives have a fitted effect of over 55% in size
# assay.context: HPAF-II viability, CellTiter-Glo ATP luminescence, 72 h; series mostly up to 38.3 µM
Results filed as inconclusive are left out. Active and inactive are the calls of the source. Calls come from the whole dose curve; as a rule, active = well fitted cell-killing curve with a large enough effect; inconclusive = small, poorly fitted or top-dose-only effect; inactive = flat fitted curve, though single readings scatter. Square brackets hold non-standard residues; d marks the D form. Peptide text beside a SMILES is read from it. ξ: configuration not given here. ξL = CC(C)CC(N)C(=O)O
Return exactly one item of TRUE for active, FALSE for inactive

Solved entries (count: 3):
| compound | category |
| --- | --- |
| O=C1CCC(=O)N(O)CCCCCNC(=O)CCC(=O)N(O)CCCCCNC(=O)CCC(=O)N(O)CCCCCN1 | TRUE |
| CC(=O)Oc1cc2c(c(OC(C)=O)c1C1CCc3cc(Cl)c(Cl)n31)C(=O)n1c-2cc(Cl)c1Cl (stereo not drawn) | TRUE |
| COC1C(C)OC(OCC23C[C@@H]4[C@H](C)CC[C@H]4C4(C=O)CC2C=C(C(C)C)C34C(=O)O)[C@@H](O)[C@H]1O (stereo partly drawn) | FALSE |

In: Hi, sorry to bother you, what did the test record for `CC(=O)c1c(C)cc2c(c1O)C(=O)c1c(O)cc(O)cc1C2=O` ?
Out: FALSE

In: Kindly provide the recorded test outcome for the following compound: CC(=O)N[C@H](C)c1nc(/C=C/C=C/C(=O)CC2CC(=O)CC[C@]2(C)O)cs1 (stereo partly drawn)
Out: FALSE

In: Could you kindly confirm the outcome this assay logged for CC[C@@H](C)[C@H]1NC(=O)C(CC(C)C)NC(=O)[C@@H](CC(C)C)NC(=O)[C@H](Cc2c[nH]c3ccccc23)NC(=O)CNC(=O)[C@@H](CC(N)=O)NC1=O (stereo partly drawn) (cyclo(GW[dL][ξL][dI][dN])) ?
Out: FALSE

In: Could you kindly confirm the outcome this assay logged for `C/C=C(/C)c1c(Cl)c(OC)c(C)c2c1Oc1c(Cl)c(O)c(Cl)c(C)c1C(=O)O2` ?
Out: TRUE

In: Record lookup: outcome of this test for `CC(C)=CCC[C@]1(C)[C@H]2CC(=O)[C@@]3(CO3)[C@@H]1C2` ?
Out: FALSE

----------
# system: Phospholipid hydroperoxide glutathione peroxidase GPX4 (Homo sapiens)
# test.description: Primary qHTS Assay for Inhibitors of Recombinant Selenoprotein Glutathione Peroxidase 4 (GPX4) (AID 1845192); also: nearly all actives have a fitted effect of over 65% in size
# assay.context: recombinant GPX4, GR-coupled NADPH fluorescence, 15 min; series mostly up to 50 µM
Records with an inconclusive call do not appear. Calls of active or inactive are those of the source. Calls follow the shape of the dose curve; as a rule, active = well fitted inhibition curve with a large enough effect; inconclusive = small, poorly fitted or top-dose-only effect; inactive = flat fitted curve, though single readings scatter.
reported.property: outcome

| molecule | reported.property | obs.value |
| --- | --- | --- |
| C[C@H]1O[C@H](O[C@H]2[C@H](O)[C@@H](O)[C@@H](O[C@H]3[C@H](O)[C@@H](O)C(O)O[C@@H]3CO)O[C@@H]2CO)[C@H](O)[C@@H](O)[C@@H]1N[C@H]1C=C(CO)[C@@H](O)[C@H](O)[C@H]1O (stereo partly drawn) | outcome | inactive |
| COc1cc(N2CCN(C)CC2)ccc1Nc1ncc2c(n1)N(C)c1ccccc1C(=O)N2C | outcome | inactive |
| C=CC(=O)N[C@H]1CCOC[C@H]1Nc1ncc2cc(-c3c(Cl)c(OC)cc(OC)c3Cl)ccc2n1 | outcome | inactive |

----------
# test.description: qHTS Assay for Lipid Storage Modulators (AID 1519); also: % is scaled to controls: 0 for no effect and ±100 for the full control effect
# assay.context: Drosophila S3 cells, BODIPY lipid droplet/cell ratio, laser cytometry; at 57.5 µM (top of the series); cells loaded with oleic acid
Inconclusive results are not listed.
reported.property: activity change, negative = inhibition (%)
Report the value in % with no unit label.

| smiles.text | unit.abbrev | obs.value |
| --- | --- | --- |
| O=C(c1ccco1)N1CCC2(CC1)CN(C(c1ccccc1)c1ccccc1)C2 | % | 2.1 |
| Cc1noc(C)c1-c1cc(NCCN2CCOCC2)ncn1 | % | 6.08 |
| O=c1c(-c2ccc(F)c(F)c2)nc2cncnc2n1C1CC1 | % | 8.82 |
| CN(C)c1ncc2ncc(=O)n(C[C@H]3CCCO3)c2n1 | % | 5.33 |

In: Consider the compound `CS(=O)(=O)Nc1cccc(-c2ccc3ncnc(Nc4ccccc4)c3c2)c1` and give its measured activity change, negative = inhibition.
Out: 5.6

In: So what does the record say about activity change, negative = inhibition for `O=C(Nc1cccc(F)c1)N1CCC2(CC1)CCN(S(=O)(=O)c1ccccc1)CC2` ?
Out: -0.528
